biological target: T1, mOrai1-hOrai1 ECL2 (…) protein (human/mouse chimera, UniProt Q8BWG9 1-304 (mouse entry)); assay: FACS, 293EBNA; parameters: concentration or dose not given beside the values
T1 construct: also called Ch
T1 sequence (Q8BWG9 other isoform, or with tags, fused parts or gaps): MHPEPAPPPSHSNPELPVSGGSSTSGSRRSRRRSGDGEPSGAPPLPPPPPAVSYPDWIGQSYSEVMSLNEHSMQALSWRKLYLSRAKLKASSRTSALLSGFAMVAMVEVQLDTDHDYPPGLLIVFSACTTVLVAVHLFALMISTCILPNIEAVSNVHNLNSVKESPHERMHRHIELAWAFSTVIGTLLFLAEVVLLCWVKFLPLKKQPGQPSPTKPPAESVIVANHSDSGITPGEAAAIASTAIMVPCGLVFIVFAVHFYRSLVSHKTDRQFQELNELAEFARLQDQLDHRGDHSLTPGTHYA
PARAMETER: POC (percent of control, FACS Geo Mean relative to Ch. 1)

mAb 2D2.1 (antibody, human IgG2, lambda, V domains shown, fully human IgG2 lambda, Campaign 1; also called mAb 2D.1) VH: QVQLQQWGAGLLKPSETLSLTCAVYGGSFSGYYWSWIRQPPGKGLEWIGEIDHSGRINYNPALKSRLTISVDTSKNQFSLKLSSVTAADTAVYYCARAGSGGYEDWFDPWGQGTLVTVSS VL: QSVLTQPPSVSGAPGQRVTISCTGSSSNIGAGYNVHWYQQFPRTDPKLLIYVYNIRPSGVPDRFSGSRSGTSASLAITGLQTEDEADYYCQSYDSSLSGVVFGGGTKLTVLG = < 1%
mAb 2B7.1 (antibody, human IgG2, V domains shown, fully human, Campaign 1) VH: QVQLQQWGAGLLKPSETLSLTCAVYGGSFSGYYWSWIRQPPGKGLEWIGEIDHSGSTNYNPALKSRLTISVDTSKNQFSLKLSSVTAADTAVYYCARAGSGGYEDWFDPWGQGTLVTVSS VL: QSVLTQPPSVSGAPGQRVTISCTGSSSNIGTGYNVHWYQQFPRTDPKLLIYVYNIRPSGVPDRFSGSRSGTSASLAITGLQTEDEADYYCQSYDSSLSGVVFGGGTKLTVLG = < 1%

Request the reported POC (percent of control, FACS Geo Mean relative to Ch. 1) associated with mAb 2B4.1 (antibody, human IgG2, lambda, V domains shown) VH: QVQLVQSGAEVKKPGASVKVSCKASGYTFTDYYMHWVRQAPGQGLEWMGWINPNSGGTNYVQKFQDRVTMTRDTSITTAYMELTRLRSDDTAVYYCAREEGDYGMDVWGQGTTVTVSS VL: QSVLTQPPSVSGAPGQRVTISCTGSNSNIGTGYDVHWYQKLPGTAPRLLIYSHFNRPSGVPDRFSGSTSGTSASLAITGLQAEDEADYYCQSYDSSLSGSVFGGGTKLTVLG
< 1%

// data source = patent US20120231006A1
